- MEASUREMENT TARGET: RIOK2 (human) (UniProt Q9BVS4)
- Sequence (Q9BVS4 whole entry, looked up): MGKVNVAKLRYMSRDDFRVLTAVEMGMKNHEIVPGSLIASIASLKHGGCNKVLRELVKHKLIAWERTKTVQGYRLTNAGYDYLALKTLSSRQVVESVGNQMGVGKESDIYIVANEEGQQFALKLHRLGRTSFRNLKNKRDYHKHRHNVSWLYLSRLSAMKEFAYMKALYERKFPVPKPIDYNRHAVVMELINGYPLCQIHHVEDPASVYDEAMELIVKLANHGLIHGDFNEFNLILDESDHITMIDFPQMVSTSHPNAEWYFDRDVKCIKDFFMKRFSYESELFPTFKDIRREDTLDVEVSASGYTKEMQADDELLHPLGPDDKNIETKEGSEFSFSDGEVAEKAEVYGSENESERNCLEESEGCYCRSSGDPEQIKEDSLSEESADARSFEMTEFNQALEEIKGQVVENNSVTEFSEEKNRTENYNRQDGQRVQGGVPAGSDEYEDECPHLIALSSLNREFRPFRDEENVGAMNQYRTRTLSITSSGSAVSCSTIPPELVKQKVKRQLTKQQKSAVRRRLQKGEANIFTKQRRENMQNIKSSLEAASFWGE
- PROCEDURE TEXT: KINOMEscan competition binding
- EXPERIMENTAL CONDITIONS: compound 10.0 µM
Doc: threshold 80% (exclusive). Items with kinase still bound, per cent of control beneath it return criterion met; others return criterion not met.

Ask | Dear reviewer, please state whether `Cc1n[nH]c2ccc(-c3cncc(OC[C@@H](N)Cc4c[nH]c5ccccc45)c3)cc12` has kinase still bound, per cent of control strictly beneath 80%.
Reply | criterion met

Ask | How about `CN(C)C/C=C/C(=O)Nc1ccc(C(=O)Nc2cccc(Nc3nccc(-c4cccnc4)n3)c2)cc1` ?
Reply | criterion met

Ask | How about `O=C1NC(=O)/C(=C/c2ccc3nccc(-c4ccncc4)c3c2)S1` ?
Reply | criterion met

Ask | How about `COc1cc2ncnc(-n3nc(-c4ccccn4)nc3N)c2cc1OC` ?
Reply | criterion met

Ask | How about `CCN1CCN(C(=O)Cc2ccc(Nc3ncc(F)c(Nc4ccc(C(=O)Nc5ccccc5Cl)cc4)n3)cc2)CC1` ?
Reply | criterion met

Ask | How about `CNC(=O)c1ccc(Nc2cc(Nc3ccccc3S(=O)(=O)C(C)C)c3cc[nH]c3n2)nc1` ?
Reply | criterion met

Ask | How about `COc1cc(N2CCN(C)CC2)ccc1Nc1ncc2c(n1)N(C)c1ccccc1C(=O)N2C` ?
Reply | criterion not met

Ask | How about `COc1cc2ncn(-c3cc(OCc4ccccc4C(F)(F)F)c(C(N)=O)s3)c2cc1OC` ?
Reply | criterion met

Ask | How about `CNC(=O)c1cc(Oc2ccc(NC(=O)Nc3ccc(Cl)c(C(F)(F)F)c3)cc2)ccn1` ?
Reply | criterion not met

Ask | How about `COc1cc(C(=O)N2CCC(N3CCN(C)CC3)CC2)ccc1Nc1ncc2c(n1)N(C)c1ccccc1C(=O)N2C` ?
Reply | criterion not met

Ask | How about `C[C@@H](Oc1cc(-c2cnn(C3CCNCC3)c2)cnc1N)c1c(Cl)ccc(F)c1Cl` ?
Reply | criterion met

Ask | How about `COc1ccc(N(C(=O)Oc2c(C)cccc2C)c2ccnc(Nc3ccc(N4CCN(C)CC4)cc3)n2)c(OC)c1` ?
Reply | criterion not met

Ask | How about `O=c1cc(N2CCOCC2)oc2c(-c3cccc4c3sc3ccccc34)cccc12` ?
Reply | criterion met

Ask | How about `N#CCNC(=O)c1ccc(-c2ccnc(Nc3ccc(N4CCOCC4)cc3)n2)cc1` ?
Reply | criterion met

Ask | How about `O=C(Nc1cccc(Nc2ncc(Br)c(NCCc3cnc[nH]3)n2)c1)N1CCCC1` ?
Reply | criterion met

Ask | How about `CCN(CC)CCCCNc1ncc2c(n1)N(C)C(=O)N(c1c(Cl)c(OC)cc(OC)c1Cl)C2` ?
Reply | criterion not met

Ask | How about `C=CC(=O)Nc1ccc(CN(C(=O)Nc2c(Cl)c(OC)cc(OC)c2Cl)c2cc(Nc3ccc(N4CCN(C)CC4)cc3)ncn2)cc1` ?
Reply | criterion not met

Ask | How about `C=CC(=O)Nc1cc(-n2c(=O)ccc3cnc4ccc(-c5cn[nH]c5)cc4c32)ccc1C` ?
Reply | criterion met

Ask | How about `COCC(=O)NC/C=C/c1ccc2ncnc(Nc3ccc(Oc4ccc(C)nc4)c(C)c3)c2c1` ?
Reply | criterion not met

Ask | How about `NC(=O)Nc1cc(-c2cccc(F)c2)sc1C(=O)N[C@@H]1CCCNC1` ?
Reply | criterion met

Ask | How about `CS(=O)(=O)N1CCN(Cc2cc3nc(-c4cccc5[nH]ncc45)nc(N4CCOCC4)c3s2)CC1` ?
Reply | criterion not met

---

Consider the following compounds and their measured kinase still bound, per cent of control readings.
- MEASUREMENT TARGET: MYLK4 (human) (UniProt Q86YV6)
- Sequence (Q86YV6 whole entry, looked up): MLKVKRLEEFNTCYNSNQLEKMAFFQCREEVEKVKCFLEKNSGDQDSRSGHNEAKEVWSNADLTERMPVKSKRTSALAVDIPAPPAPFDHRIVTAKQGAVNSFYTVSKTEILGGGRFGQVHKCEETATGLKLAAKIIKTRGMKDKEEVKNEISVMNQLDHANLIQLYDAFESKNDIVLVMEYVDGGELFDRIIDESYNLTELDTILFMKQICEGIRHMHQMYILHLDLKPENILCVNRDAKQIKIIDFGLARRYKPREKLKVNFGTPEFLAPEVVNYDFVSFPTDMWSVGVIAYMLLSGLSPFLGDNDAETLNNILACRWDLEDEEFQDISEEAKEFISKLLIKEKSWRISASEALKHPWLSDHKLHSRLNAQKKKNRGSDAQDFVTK
- PROCEDURE TEXT: KINOMEscan competition binding
- EXPERIMENTAL CONDITIONS: compound 10.0 µM
Numbers only; they are read as %.

C=CC(=O)Nc1ccc(CN(C(=O)Nc2c(Cl)c(OC)cc(OC)c2Cl)c2cc(Nc3ccc(N4CCN(C)CC4)cc3)ncn2)cc1; 100
COc1ccc(N(C(=O)Oc2c(C)cccc2C)c2ccnc(Nc3ccc(N4CCN(C)CC4)cc3)n2)c(OC)c1; 100

Ask | For the compound `CS(=O)(=O)N1CCN(Cc2cc3nc(-c4cccc5[nH]ncc45)nc(N4CCOCC4)c3s2)CC1` , what kinase still bound, per cent of control is on record?
Reply | 100

Ask | How about `CNC(=O)c1ccc(Nc2cc(Nc3ccccc3S(=O)(=O)C(C)C)c3cc[nH]c3n2)nc1` ?
Reply | 100

Ask | How about `COc1cc(C(=O)N2CCC(N3CCN(C)CC3)CC2)ccc1Nc1ncc2c(n1)N(C)c1ccccc1C(=O)N2C` ?
Reply | 80

Ask | How about `CN(C)C/C=C/C(=O)Nc1ccc(C(=O)Nc2cccc(Nc3nccc(-c4cccnc4)n3)c2)cc1` ?
Reply | 36

Ask | How about `COCC(=O)NC/C=C/c1ccc2ncnc(Nc3ccc(Oc4ccc(C)nc4)c(C)c3)c2c1` ?
Reply | 100

Ask | How about `C=CC(=O)Nc1cc(-n2c(=O)ccc3cnc4ccc(-c5cn[nH]c5)cc4c32)ccc1C` ?
Reply | 88

---

- Test system: KIT (human), P10721 [L576P]
- Sequence (P10721 whole entry L576P, looked up): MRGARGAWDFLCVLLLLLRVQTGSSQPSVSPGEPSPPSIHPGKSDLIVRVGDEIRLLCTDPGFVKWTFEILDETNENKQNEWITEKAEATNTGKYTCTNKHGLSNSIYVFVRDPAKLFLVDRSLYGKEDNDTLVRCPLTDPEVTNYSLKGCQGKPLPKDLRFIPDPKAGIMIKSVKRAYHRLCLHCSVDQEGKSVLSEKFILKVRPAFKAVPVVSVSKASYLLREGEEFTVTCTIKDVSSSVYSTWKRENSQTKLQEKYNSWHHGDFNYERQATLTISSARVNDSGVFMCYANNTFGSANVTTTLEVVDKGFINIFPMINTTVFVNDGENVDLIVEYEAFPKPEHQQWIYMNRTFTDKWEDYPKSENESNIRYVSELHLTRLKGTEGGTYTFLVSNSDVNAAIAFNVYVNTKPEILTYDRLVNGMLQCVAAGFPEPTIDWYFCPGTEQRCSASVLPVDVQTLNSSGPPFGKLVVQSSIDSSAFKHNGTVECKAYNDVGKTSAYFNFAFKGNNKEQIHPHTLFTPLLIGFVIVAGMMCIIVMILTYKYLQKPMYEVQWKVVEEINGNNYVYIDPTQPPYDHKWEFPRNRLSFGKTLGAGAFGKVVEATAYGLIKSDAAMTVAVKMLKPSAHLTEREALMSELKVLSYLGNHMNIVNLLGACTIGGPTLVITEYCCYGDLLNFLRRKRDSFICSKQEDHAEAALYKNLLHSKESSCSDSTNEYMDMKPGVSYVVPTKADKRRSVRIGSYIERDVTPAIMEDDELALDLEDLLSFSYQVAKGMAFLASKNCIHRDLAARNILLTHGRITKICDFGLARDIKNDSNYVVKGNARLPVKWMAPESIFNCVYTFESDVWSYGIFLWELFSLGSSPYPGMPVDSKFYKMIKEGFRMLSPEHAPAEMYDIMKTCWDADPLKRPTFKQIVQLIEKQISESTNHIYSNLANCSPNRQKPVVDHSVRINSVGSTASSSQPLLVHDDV
- PROCEDURE TEXT: KINOMEscan competition binding
- EXPERIMENTAL CONDITIONS: compound 10.0 µM
VALUE TYPE: kinase still bound, per cent of control (%)
Numbers only; they are read as %.

N#Cc1cc(-c2ccnc(Nc3ccc(-n4cnc(-c5cccnc5)n4)cc3)n2)cc(N2CCOCC2)c1; 17

Ask | Which kinase still bound, per cent of control is reported with KIT (human), P10721 [L576P] for this entry: `COc1cc2ncnc(-n3nc(-c4ccccn4)nc3N)c2cc1OC` ?
Reply | 4.5

Ask | How about `COCC(=O)NC/C=C/c1ccc2ncnc(Nc3ccc(Oc4ccc(C)nc4)c(C)c3)c2c1` ?
Reply | 54

Ask | How about `C=CC(=O)Nc1cc(-n2c(=O)ccc3cnc4ccc(-c5cn[nH]c5)cc4c32)ccc1C` ?
Reply | 68

Ask | How about `O=c1[nH]c2ccccc2n1C1CCN(Cc2ccc(-c3nc4cc5[nH]cnc5cc4nc3-c3ccccc3)cc2)CC1` ?
Reply | 87

Ask | How about `CCN1CCN(C(=O)Cc2ccc(Nc3ncc(F)c(Nc4ccc(C(=O)Nc5ccccc5Cl)cc4)n3)cc2)CC1` ?
Reply | 3.2

Ask | How about `C=CC(=O)Nc1cccc(Nc2nc(N[C@H]3CC[C@H](N(C)C)CC3)nc3c2ncn3C(C)C)c1` ?
Reply | 33

Ask | How about `CCC(=O)N1CCN(c2ccc(-n3c(=O)ccc4cnc5ccc(-c6cnc7ccccc7c6)cc5c43)cc2C(F)(F)F)CC1` ?
Reply | 48

---

- MEASUREMENT TARGET: IKBKB (human) (UniProt O14920)
- Sequence (O14920 whole entry, looked up): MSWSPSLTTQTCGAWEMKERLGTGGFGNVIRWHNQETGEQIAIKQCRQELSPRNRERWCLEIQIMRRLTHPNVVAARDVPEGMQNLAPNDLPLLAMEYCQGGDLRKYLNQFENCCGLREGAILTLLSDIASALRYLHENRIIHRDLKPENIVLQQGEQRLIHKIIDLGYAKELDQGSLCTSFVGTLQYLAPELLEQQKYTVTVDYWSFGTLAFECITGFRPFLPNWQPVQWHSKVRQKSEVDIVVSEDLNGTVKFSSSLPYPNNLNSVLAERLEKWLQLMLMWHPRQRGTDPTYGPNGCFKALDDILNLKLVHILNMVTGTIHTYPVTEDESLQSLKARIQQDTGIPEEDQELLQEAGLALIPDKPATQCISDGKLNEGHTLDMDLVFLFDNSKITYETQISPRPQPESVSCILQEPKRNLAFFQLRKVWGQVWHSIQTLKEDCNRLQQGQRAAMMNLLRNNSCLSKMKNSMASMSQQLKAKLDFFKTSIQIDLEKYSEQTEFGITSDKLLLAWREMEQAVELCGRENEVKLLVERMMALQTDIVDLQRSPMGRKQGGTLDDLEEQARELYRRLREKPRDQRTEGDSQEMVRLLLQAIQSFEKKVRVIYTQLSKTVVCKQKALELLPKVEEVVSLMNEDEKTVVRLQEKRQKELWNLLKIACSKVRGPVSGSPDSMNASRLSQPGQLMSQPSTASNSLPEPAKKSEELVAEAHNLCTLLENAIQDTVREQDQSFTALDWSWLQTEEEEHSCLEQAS
- PROCEDURE TEXT: KINOMEscan competition binding
- EXPERIMENTAL CONDITIONS: compound 10.0 µM
VALUE TYPE: kinase still bound, per cent of control (%)
Numbers only; they are read as %.

Some compounds with recorded kinase still bound, per cent of control:
NC(=O)Nc1cc(-c2cccc(F)c2)sc1C(=O)N[C@@H]1CCCNC1; 2.5
CCN(CC)CCCCNc1ncc2c(n1)N(C)C(=O)N(c1c(Cl)c(OC)cc(OC)c1Cl)C2; 100
N#CCNC(=O)c1ccc(-c2ccnc(Nc3ccc(N4CCOCC4)cc3)n2)cc1; 0.15
C=CC(=O)Nc1ccc(CN(C(=O)Nc2c(Cl)c(OC)cc(OC)c2Cl)c2cc(Nc3ccc(N4CCN(C)CC4)cc3)ncn2)cc1; 100

Let's switch to this compound now.
Ask | For the compound `CNC(=O)c1ccc(Nc2cc(Nc3ccccc3S(=O)(=O)C(C)C)c3cc[nH]c3n2)nc1` , what kinase still bound, per cent of control is on record?
Reply | 100

---

- MEASUREMENT TARGET: GSK3A (human)
- PROCEDURE TEXT: KINOMEscan competition binding
- EXPERIMENTAL CONDITIONS: compound 10.0 µM
VALUE TYPE: kinase still bound, per cent of control (%)
Numbers only; they are read as %.

COCC(=O)NC/C=C/c1ccc2ncnc(Nc3ccc(Oc4ccc(C)nc4)c(C)c3)c2c1; 100

Ask | For the compound `COc1cc(C(=O)N2CCC(N3CCN(C)CC3)CC2)ccc1Nc1ncc2c(n1)N(C)c1ccccc1C(=O)N2C` , what kinase still bound, per cent of control is on record?
Reply | 100

Ask | How about `COc1cc(N2CCN(C)CC2)ccc1Nc1ncc2c(n1)N(C)c1ccccc1C(=O)N2C` ?
Reply | 100

Ask | How about `CCN(CC)CCCCNc1ncc2cc(-c3cc(OC)cc(OC)c3)c(NC(=O)NC(C)(C)C)nc2n1` ?
Reply | 100
